molecular target: Stimulator of interferon genes protein (Homo sapiens, UniProt Q86WV6); assay: Activation of wild-type human STING expressed in digitonin treated human THP1-Dual cells co-expressing IRF3-activated ISRE assessed as IRF3 reporter activation measured after 30 mins by luciferase reporter gene assay; assay type: cell-based
Sequence (Q86WV6 whole entry): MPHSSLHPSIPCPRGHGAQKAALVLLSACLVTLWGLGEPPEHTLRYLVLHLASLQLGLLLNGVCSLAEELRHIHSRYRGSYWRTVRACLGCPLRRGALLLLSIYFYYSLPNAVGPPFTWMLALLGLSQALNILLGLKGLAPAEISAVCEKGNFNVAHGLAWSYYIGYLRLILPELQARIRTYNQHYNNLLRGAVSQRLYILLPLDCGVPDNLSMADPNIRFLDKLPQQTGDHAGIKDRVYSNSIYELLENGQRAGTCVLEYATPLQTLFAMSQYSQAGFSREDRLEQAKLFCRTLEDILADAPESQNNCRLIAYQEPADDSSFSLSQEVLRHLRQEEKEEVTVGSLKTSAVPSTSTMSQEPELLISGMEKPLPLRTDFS
Readout label: pEC50
Here pEC50 is given on a logarithmic scale as minus log10 of the concentration in mol/L.

Below, 4 compounds whose answers are already recorded.
Nc1ncnc2c1ncn2[C@@H]1O[C@@H]2COP(=O)(O)O[C@H]3[C@@H](F)[C@H](n4cnc5c(N)ncnc54)O[C@@H]3COP(=O)(O)O[C@H]2[C@H]1F    4.72
Nc1ncnc2c1ncn2[C@@H]1O[C@@H]2CO[P@@](=O)(OCOC(=O)c3ccccc3)O[C@H]3[C@@H](F)[C@H](n4cnc5c(N)ncnc54)O[C@@H]3COP(=O)(O)O[C@H]2[C@H]1F    5.76
Nc1ncnc2c1ncn2[C@@H]1O[C@@H]2CO[P@@](=O)(S)O[C@H]3[C@@H](F)[C@H](n4cnc5c(N)ncnc54)O[C@@H]3CO[P@](=O)(S)O[C@H]2[C@H]1F    5.52
CC(C)(C)C(=O)OCO[P@]1(=O)OC[C@H]2O[C@@H](n3cnc4c(N)ncnc43)[C@H](F)[C@@H]2O[P@](=O)(OCOC(=O)C(C)(C)C)OC[C@H]2O[C@@H](n3cnc4c(N)ncnc43)[C@H](F)[C@@H]2O1    6.96

Lab note: compound CC(C)(C)C(=O)OCO[P@@]1(=O)OC[C@H]2O[C@@H](n3cnc4c(N)ncnc43)[C@H](F)[C@@H]2O[P@](=O)(OCOC(=O)C(C)(C)C)OC[C@H]2O[C@@H](n3cnc4c(N)ncnc43)[C@H](F)[C@@H]2O1 tested on Stimulator of interferon genes protein (Homo sapiens, UniProt Q86WV6); recorded pEC50 was 6.74

Lab note: compound CC(C)(C)C(=O)OCS[P@]1(=O)OC[C@H]2O[C@@H](n3cnc4c(N)ncnc43)[C@H](F)[C@@H]2O[P@](=O)(SCOC(=O)C(C)(C)C)OC[C@H]2O[C@@H](n3cnc4c(N)ncnc43)[C@H](F)[C@@H]2O1 tested on Stimulator of interferon genes protein (Homo sapiens, UniProt Q86WV6); recorded pEC50 was 7.22

Lab note: compound CC(C)OC(=O)OCO[P@]1(=O)OC[C@H]2O[C@@H](n3cnc4c(N)ncnc43)[C@H](F)[C@@H]2O[P@](=O)(OCOC(=O)OC(C)C)OC[C@H]2O[C@@H](n3cnc4c(N)ncnc43)[C@H](F)[C@@H]2O1 tested on Stimulator of interferon genes protein (Homo sapiens, UniProt Q86WV6); recorded pEC50 was 6.42

Lab note: compound CC(C)OC(=O)OCO[P@@]1(=O)OC[C@H]2O[C@@H](n3cnc4c(N)ncnc43)[C@H](F)[C@@H]2O[P@](=O)(OCOC(=O)OC(C)C)OC[C@H]2O[C@@H](n3cnc4c(N)ncnc43)[C@H](F)[C@@H]2O1 tested on Stimulator of interferon genes protein (Homo sapiens, UniProt Q86WV6); recorded pEC50 was 6.01

Lab note: compound Nc1ncnc2c1ncn2[C@@H]1O[C@@H]2CO[P@](=O)(S)O[C@H]3[C@@H](F)[C@H](n4cnc5c(N)ncnc54)O[C@@H]3CO[P@](=O)(S)O[C@H]2[C@H]1F tested on Stimulator of interferon genes protein (Homo sapiens, UniProt Q86WV6); recorded pEC50 was 4.92

Lab note: compound Nc1ncnc2c1ncn2[C@@H]1O[C@@H]2CO[P@@](=O)(S)O[C@H]3[C@@H](F)[C@H](n4cnc5c(N)ncnc54)O[C@@H]3CO[P@@](=O)(S)O[C@H]2[C@H]1F tested on Stimulator of interferon genes protein (Homo sapiens, UniProt Q86WV6); recorded pEC50 was 5.45
